- Tested On: recombinant PRL-2 (Homo sapiens)
- Construct: 6xHis (N, cleaved yes); made in house; host or cells: E. coli One Shot BL21 Star
- Sequence (Q12974 whole entry): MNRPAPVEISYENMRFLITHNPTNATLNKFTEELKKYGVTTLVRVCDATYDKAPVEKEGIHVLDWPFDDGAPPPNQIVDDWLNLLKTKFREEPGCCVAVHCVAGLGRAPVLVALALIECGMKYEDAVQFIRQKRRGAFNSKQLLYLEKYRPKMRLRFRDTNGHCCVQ
- Experimental Protocol: In vitro phosphatase assay (DiFMUP hydrolysis), PRL-2;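 also: PRL-2 activity read as DiFMUP hydrolysis after 20 min at room temperature with drug, enzyme first pre-reduced at 4 °C for 20 min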
- Format: biochemical
- Conditions: FDA-approved drug screen; compared to DMSO
Counter-ions that a name gives are not always drawn.
Below, each of the molecules is paired with its reported % Phosphatase Activity (compared to DMSO) PRL-2 value.
Assay Metric: % Phosphatase Activity (compared to DMSO) PRL-2

molecule="O=c1[nH]c(=O)n([C@H]2C[C@H](O)[C@@H](CO)O2)cc1F [Floxuridine]" recorded_measurement=100%
molecule="CO[C@H]1C[C@@H]2CC[C@@H](C)[C@@](O)(O2)C(=O)C(=O)N2CCCC[C@H]2C(=O)O[C@H]([C@H](C)C[C@@H]2CC[C@@H](OCCO)[C@H](OC)C2)CC(=O)[C@H](C)/C=C(\\C)[C@@H](O)[C@@H](OC)C(=O)[C@H](C)C[C@H](C)/C=C/C=C/C=C/1C [Everolimus (RAD001)]" recorded_measurement=86%
molecule="CCN(CC)CC(=O)Nc1c(C)cccc1C [Lidocaine]" recorded_measurement=91%
molecule="CC[C@H](C)C(=O)O[C@H]1C[C@H](O)C=C2C=C[C@H](C)[C@H](CC[C@@H](O)C[C@@H](O)CC(=O)O)[C@H]21 [Pravastatin sodium]" recorded_measurement=113%
molecule="C[C@H]1C[C@H]2[C@@H]3CCC4=CC(=O)C=C[C@]4(C)[C@H]3C(=O)C[C@]2(C)[C@@]1(O)C(=O)CO [Meprednisone]" recorded_measurement=97%
molecule="Cc1cc(C#N)cc(C)c1Oc1nc(Nc2ccc(C#N)cc2)nc(N)c1Br [Etravirine (TMC125)]" recorded_measurement=133%
molecule="CS(=O)(=O)c1ccc(C2=C(c3ccccc3)C(=O)OC2)cc1 [Rofecoxib]" recorded_measurement=120%
molecule="C=CCc1cc(OC)c(O)c(C(=O)NCCO)c1 [Alibendol]" recorded_measurement=109%
molecule="CC[C@H]1OC(=O)[C@H](C)[C@@H](O[C@H]2C[C@@](C)(OC)[C@@H](O)[C@H](C)O2)[C@H](C)[C@@H](O[C@@H]2O[C@H](C)C[C@H](N(C)C)[C@H]2O)[C@](C)(O)C[C@@H](C)C(=O)[C@H](C)[C@@H](O)[C@]1(C)O [Erythromycin]" recorded_measurement=93%
molecule="COc1ccc(-c2ccc3cc(C(=O)O)ccc3c2)cc1C12CC3CC(CC(C3)C1)C2 [Adapalene]" recorded_measurement=141%
molecule="COc1cc([C@@H]2c3cc4c(cc3[C@@H](O[C@@H]3O[C@@H]5CO[C@@H](C)O[C@H]5[C@H](O)[C@H]3O)[C@H]3COC(=O)[C@H]23)OCO4)cc(OC)c1O [Etoposide]" recorded_measurement=98%
molecule="Nc1ncn([C@H]2C[C@H](O)[C@@H](CO)O2)c(=O)n1 [Decitabine]" recorded_measurement=93%
molecule="CC(C)(C)c1cc(NC(=O)Nc2ccc(-c3cn4c(n3)sc3cc(OCCN5CCOCC5)ccc34)cc2)no1 [Quizartinib (AC220)]" recorded_measurement=114%
molecule="CCN[C@H]1C[C@H](C)S(=O)(=O)c2sc(S(N)(=O)=O)cc21 [Dorzolamide HCl]" recorded_measurement=81%
